Reported values of % inh for individual entries
Biological target: T1, mouse DLL4 overexpressed on cells (mouse, UniProt Q9JI71 27-686)
T1 construct: whole, on cells; also called CHO-mDLL4; CHO-mDII4
T1 sequence (Q9JI71 27-686): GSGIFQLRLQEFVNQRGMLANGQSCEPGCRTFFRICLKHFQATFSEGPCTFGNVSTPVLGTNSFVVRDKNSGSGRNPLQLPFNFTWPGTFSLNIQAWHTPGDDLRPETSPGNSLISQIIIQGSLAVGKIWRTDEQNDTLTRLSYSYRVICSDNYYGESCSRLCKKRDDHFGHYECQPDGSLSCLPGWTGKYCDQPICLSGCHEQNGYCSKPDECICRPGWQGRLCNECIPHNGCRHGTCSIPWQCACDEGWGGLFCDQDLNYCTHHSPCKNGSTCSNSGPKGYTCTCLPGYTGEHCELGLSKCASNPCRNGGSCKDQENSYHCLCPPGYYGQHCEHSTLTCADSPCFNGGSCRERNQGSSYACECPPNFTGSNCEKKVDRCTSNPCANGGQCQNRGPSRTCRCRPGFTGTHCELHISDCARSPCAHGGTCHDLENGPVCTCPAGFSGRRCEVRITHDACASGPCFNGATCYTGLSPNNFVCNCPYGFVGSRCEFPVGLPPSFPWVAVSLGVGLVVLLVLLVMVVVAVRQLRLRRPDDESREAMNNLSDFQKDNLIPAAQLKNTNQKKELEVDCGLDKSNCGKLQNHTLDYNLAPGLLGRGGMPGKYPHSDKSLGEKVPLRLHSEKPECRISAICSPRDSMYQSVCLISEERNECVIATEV
Assay: FMAT, labelled hNotch1-Fc on CHO-mDLL4, periplasmic extract
Description: All calculations are based on the FL1_total signal which comprises the average of the fluorescence per well times the number of counts per well.
Field: value (include unit after the number)

A selection of reference data follows.
binder	% inh
DLLBII101G08 (VHH, also called 101G8; DLLBII101G8) VHH: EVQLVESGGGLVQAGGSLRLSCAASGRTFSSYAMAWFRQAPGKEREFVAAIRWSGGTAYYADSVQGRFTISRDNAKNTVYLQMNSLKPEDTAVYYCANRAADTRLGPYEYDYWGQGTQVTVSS	92%
DLLBII112E07 (VHH) VHH: EVQLVESGGGLVQAGGSLRLSCAASGRTVRSYATGWFRQAPGKEREFVAALRWSIGSIASVYYDDSVKGRFTISGDNAENTVYLQMNALKPEDTAIYYCASTTRGRYSALSASAYDYWGQGTQVTVSS	85%
DLLBII104G01 (VHH, also called 104G1) VHH: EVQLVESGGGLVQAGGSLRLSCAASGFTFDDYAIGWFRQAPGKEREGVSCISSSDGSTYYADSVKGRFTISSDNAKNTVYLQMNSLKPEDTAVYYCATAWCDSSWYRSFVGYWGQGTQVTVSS	86%

State the recorded % inh for this entry: DLLBII104A03 (VHH) VHH: EVQLVESGGGLVQAGGSLRLSCAASGDIPRIAAMGWYRQAPGKQRELVATVSNAATTRYADSAKGRFTISRDNAKTVSLQMDNLKPEDTGVYYCYSLATTVTPSWVNYWGQGTQVTVSS
83%

Dear colleague, I am looking for the recorded % inh of the following binder: DLLBII112A03 (VHH) VHH: EVQLVESGGGLVQPGGSLRLSCAASGIRFSINGMGWYRQAPGKQREAVATITRGGIRDYTDSVKGRFTISRDIARNTVYLQMNNLKPEDSAVYYCNIDIYWGRGTQVTVSS
97%

For the binder shown here, DLLBII101H09 (VHH) VHH: EVQLVESGGGLVQPGGSLRLSCAASGFTLGYYTIVWFRQAPGKERKGVSCISSRDGSRYYADSVKGRFTISRDNAKNTVYLRMNSLKPEDTAVYYCAAGPDCSSYDYWGQGTQVTVSS , give the reported % inh.
75%
